# System: E. faecium E7314
# Assay info: microbe, parasite or virus in culture
# Format: cell-based, Enterococcus faecium
# Reported conditions: E. faecium E7314, VanB (Table 10)
For each of the compounds below, state its MIC.

>>> result("CCCCCCCNC(N)=Nc1ccc(CN[C@@]2(C)C[C@H](O[C@H]3[C@H](Oc4c5cc6cc4Oc4ccc(cc4Cl)[C@@H](O)[C@@H](NC(=O)[C@@H](CC(C)C)NC)C(=O)N[C@@H](CC(N)=O)C(=O)N[C@H]6C(=O)N[C@H]4C(=O)N[C@H](C(=O)N[C@H](C(=O)O)c6cc(O)cc(O)c6-c6cc4ccc6O)[C@H](O)c4ccc(c(Cl)c4)O5)O[C@H](CO)[C@@H](O)[C@@H]3O)O[C@@H](C)[C@H]2O)cc1 [Compound 5]")
"≤8 ng/mL"
>>> result("CCCCCCCCNC(N)=Nc1ccc(CN[C@@]2(C)C[C@H](O[C@H]3[C@H](Oc4c5cc6cc4Oc4ccc(cc4Cl)[C@@H](O)[C@@H](NC(=O)[C@@H](CC(C)C)NC)C(=O)N[C@@H](CC(N)=O)C(=O)N[C@H]6C(=O)N[C@H]4C(=O)N[C@H](C(=O)N[C@H](C(=O)O)c6cc(O)cc(O)c6-c6cc4ccc6O)[C@H](O)c4ccc(c(Cl)c4)O5)O[C@H](CO)[C@@H](O)[C@@H]3O)O[C@@H](C)[C@H]2O)cc1 [Compound 6]")
"≤8 ng/mL"

Record for CN[C@H](CC(C)C)C(=O)N[C@H]1C(=O)N[C@@H](CC(N)=O)C(=O)N[C@H]2C(=O)N[C@H]3C(=O)N[C@H](C(=O)N[C@H](C(=O)O)c4cc(O)cc(O)c4-c4cc3ccc4O)[C@H](O)c3ccc(c(Cl)c3)Oc3cc2cc(c3O[C@@H]2O[C@H](CO)[C@@H](O)[C@H](O)[C@H]2O[C@H]2C[C@](C)(NCc3ccc(N=C(N)NC/C=C(\C)CCC=C(C)C)cc3)[C@H](O)[C@H](C)O2)Oc2ccc(cc2Cl)[C@H]1O [Compound 14] under target or system E. faecium E7314: MIC reported as ≤8 ng/mL

Origin of the recorded values: patent US20230174584A1
